The measurements presented in this section are drawn from patent US20260242478A1.

# Target under test: T1, PSMA Fab
# T1 construct: also called 006 PSMA Fab; anti-PSMA Fab
# Assay details: competition ELISA; peptide 0-100 µM with 0.3 nM PSMA Fab on plate-captured biotinylated PSMA
pIC50: −log10 of the molar value. Where no end group is shown, it is not given here.
Give yes when the value for pIC50 is at least 6. Give no when it is less.

Can IVVKCVPSWMCEGF (From the Peptide-180 optimisation phage library) [Peptide-282] be said to have pIC50 at or above 6?
yes

Continuing:
hey, is pIC50 for this one >= 6? IAVLCQPNWMCAGF (cysteine pairing not given here; also: biotinylated, site not given here, PSMA mask peptide) [Peptide-180]
no

Reported pIC50 at or above 6? EDILCKPKWMCEGF (From the Peptide-180 optimisation phage library) [Peptide-271]
yes

Hi, just wondering whether PERLCTPPWMCLGF (From the Peptide-180 optimisation phage library) [Peptide-287] shows pIC50 of 6 or higher.
no

Say whether LHVYCVPEWMCAGF (From the Peptide-180 optimisation phage library) [Peptide-272] shows pIC50 of 6 or more.
no

Item TAHHCKPAWMCTGF (From the Peptide-180 optimisation phage library) [Peptide-266] with pIC50 of 6 or above?
no
